Value source: patent US7842703B2

# TARGET UNDER TEST: Human TRPV1 expressing CHO cells (Homo sapiens)
# Construct: expressed in transfected cells; host or cells: CHO cells under G-418 selection
# ASSAY PROTOCOL: Screening for TRPV1 antagonist using the 45Calcium uptake assay (inhibition of capsaicin induced cellular uptake of radioactive calcium)
# Type: cell-based
# TEST SETTINGS: CHO, test compound 1 μM, capsaicin 250 nM, relative to maximum ^45Ca uptake induced by capsaicin alone
# Experimental: The inhibition of TRPV1 receptor activation was followed as inhibition of capsaicin induced cellular uptake of radioactive calcium which represents calcium influx exclusively through the plasma membrane associated TRPV1 receptor. […] Assay was carried out with some modifications the of procedure as described by Toth et. al. (See Toth A et. al., Life Sciences 73 p 487-498, 2003). […] Radioactivity in samples was measured as counts per minute (cpm) using Packard Biosciences Top Count. […]
READOUT: inhibition at 1 µM

O=C(Nc1cccc2cnccc12)NC1CC2(CCC2)Oc2ccccc21 (single isomer, unassigned; (+)) [Example 4] :: > 50%

Here is the next item to consider.
Look up inhibition at 1 µM for this compound: Cn1ncc2cc(NC(=O)NC3CC4(CCC4)Oc4ccccc43)ccc21 (racemic) [Example 13]
> 50%

====

# TARGET UNDER TEST: Human TRPV1 expressing CHO cells (Homo sapiens, UniProt Q8NER1)
# Construct: expressed in transfected cells; host or cells: CHO cells under G-418 selection
# Sequence (Q8NER1 whole entry): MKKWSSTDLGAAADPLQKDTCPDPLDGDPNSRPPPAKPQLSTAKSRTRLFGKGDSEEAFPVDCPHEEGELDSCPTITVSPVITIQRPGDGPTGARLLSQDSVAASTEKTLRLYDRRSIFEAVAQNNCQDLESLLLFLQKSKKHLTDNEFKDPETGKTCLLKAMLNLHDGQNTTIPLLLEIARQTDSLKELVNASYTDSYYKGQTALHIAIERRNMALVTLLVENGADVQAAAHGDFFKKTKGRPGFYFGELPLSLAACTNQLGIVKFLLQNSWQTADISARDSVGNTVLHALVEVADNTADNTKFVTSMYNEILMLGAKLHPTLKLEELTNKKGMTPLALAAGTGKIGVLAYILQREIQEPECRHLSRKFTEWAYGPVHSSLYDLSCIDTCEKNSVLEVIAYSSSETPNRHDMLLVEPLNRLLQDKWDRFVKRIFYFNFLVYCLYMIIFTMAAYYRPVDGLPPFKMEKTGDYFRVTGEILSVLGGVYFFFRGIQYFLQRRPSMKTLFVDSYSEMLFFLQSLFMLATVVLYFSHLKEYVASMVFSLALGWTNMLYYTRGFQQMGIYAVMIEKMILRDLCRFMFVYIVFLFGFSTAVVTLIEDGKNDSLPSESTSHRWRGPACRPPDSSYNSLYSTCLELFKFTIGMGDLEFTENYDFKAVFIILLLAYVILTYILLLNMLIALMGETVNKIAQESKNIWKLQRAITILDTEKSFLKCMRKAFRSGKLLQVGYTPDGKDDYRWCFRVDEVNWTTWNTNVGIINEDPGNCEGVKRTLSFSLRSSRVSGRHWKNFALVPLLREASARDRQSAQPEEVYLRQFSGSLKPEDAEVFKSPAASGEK
# ASSAY PROTOCOL: Screening for TRPV1 antagonist using the 45Calcium uptake assay (inhibition of capsaicin induced cellular uptake of radioactive calcium)
# Type: cell-based
# TEST SETTINGS: CHO, test compound 1 μM, capsaicin 250 nM, relative to maximum ^45Ca uptake induced by capsaicin alone
Listing: inhibition at 1 µM of selected molecules

// worked examples, inhibition at 1 µM included
O=C(Nc1cccc2cnccc12)NC1CC2(CCC2)Oc2ccc(F)cc21 (single isomer, unassigned; (+)) [Example 43] :: > 50%
O=C(NC1CC2(CCC2)Oc2ccccc21)N1CCCCC1 (stereo not drawn) :: 0%
O=C(Nc1cccc2cnccc12)NC1CC2(CCC2)Oc2c(O)cccc21 (racemic) :: > 50%
Cc1cc2c(NC(=O)NC3CC4(CCC4)Oc4cc(OC(F)F)ccc43)cccc2cn1 (racemic) :: > 50%
O=C(Nc1cccc2ccncc12)NC1CC2(CCC2)Oc2ccccc21 (racemic) :: 46.9%

Here is the next item to consider.
Look up inhibition at 1 µM for this molecule: Cc1cc2c(NC(=O)NC3CC4(CCC4)Oc4ccccc43)cccc2cn1 (racemic)
> 50%

====

Listing: inhibition at 1 µM of selected compounds
# TARGET UNDER TEST: Human TRPV1 expressing CHO cells (Homo sapiens, UniProt Q8NER1)
# Construct: expressed in transfected cells; host or cells: CHO cells under G-418 selection
# ASSAY PROTOCOL: Screening for TRPV1 antagonist using the 45Calcium uptake assay (inhibition of capsaicin induced cellular uptake of radioactive calcium)
# Assay type: cell-based
# TEST SETTINGS: CHO, test compound 1 μM, capsaicin 250 nM, relative to maximum ^45Ca uptake induced by capsaicin alone

// worked examples, inhibition at 1 µM included
O=C(Nc1cccc2cnccc12)NC1CC2(CCC2)Oc2cc(OC3CCCC3)ccc21 (racemic) [Example 53] :: > 50%
N#Cc1cccc2c1OC1(CCC1)CC2NC(=O)Nc1cccc2cnccc12 (racemic) [Example 58] :: < 50%
Cc1ccc2c(c1)C(NC(=O)Nc1cccc3cnccc13)CC1(CCC1)O2 (racemic) [Example 40] :: > 50%
O=C(Nc1nc2ccc(Cl)cc2s1)NC1CC2(CCC2)Oc2ccccc21 (racemic) [Example 11] :: < 50%
O=C(Nc1ccc(Cl)c2cnccc12)NC1CC2(CCC2)Oc2ccc(F)cc21 (racemic) [Example 71] :: > 50%

Here is the next item to consider.
Give recorded inhibition at 1 µM with Human TRPV1 expressing CHO cells (Homo sapiens, UniProt Q8NER1) for the following compound: O=C(Nc1cccc2cnccc12)NC1CC2(CCC2)Oc2c(F)cc(F)cc21 (stereo not drawn) [Example 48]
> 50%
